pIC50 for assorted compounds
- System: L-1210/dach murine leukemia cells
- procedure details: In vitro cytotoxic activity (ID50), L-1210/dach
- Type: cell-based
- measurement context: Table II; solvent H2O, 10% DMSO or DMF per complex
Quick note: pIC50 means taking -log10 of the concentration in moles per liter.

Use the examples below as a reference point.
N.N.NCCCCN.[Cl][Pt][Cl].[Cl][Pt][Cl] [Example 3]; 5.59
N.N.NCCCCN.[Cl][Pt][Cl].[Cl][Pt][Cl] [BisPt4, [{cis-PtCl2 (NH3)}2 (H2 N(CH2)4 NH2)]]; 6.47
N.N.NCCCCN.O=C1CC(=O)[O][Pt][O]1.O=C1CC(=O)[O][Pt][O]1 [BisPtmal, [{cis-Pt(mal)(NH3)}2 (H2 N(CH2)4 NH2)]]; 5.59

IN: # lookup: pIC50 of `N.N.N.N.NCCCCN.[Cl-].[Cl-].[Cl][Pt+].[Cl][Pt+]`
OUT: 5.27
